All values here come from patent US11873291B2.

system-name: recombinant human cGAS (aa147-522) (Homo sapiens)
Construct: recombinant human cGAS (aa147-522); His6-SUMO (cleaved yes); made in house; host or cells: E. coli BL21/pLys
Sequence (Q8N884 147-522): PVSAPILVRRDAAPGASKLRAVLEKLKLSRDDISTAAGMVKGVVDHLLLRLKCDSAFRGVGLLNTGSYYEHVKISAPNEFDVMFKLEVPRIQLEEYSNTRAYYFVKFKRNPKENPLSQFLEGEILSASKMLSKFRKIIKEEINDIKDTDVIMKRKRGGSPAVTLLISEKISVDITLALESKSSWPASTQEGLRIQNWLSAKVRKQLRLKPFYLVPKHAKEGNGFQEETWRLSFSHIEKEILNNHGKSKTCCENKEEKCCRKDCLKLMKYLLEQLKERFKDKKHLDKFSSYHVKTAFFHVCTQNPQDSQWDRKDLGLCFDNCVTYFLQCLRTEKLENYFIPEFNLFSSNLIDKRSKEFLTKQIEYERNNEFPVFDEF
assay-protocol: In vitro inhibition assay of cGAS activity (ATP consumption, KinaseGlo Max)
Assay type: biochemical
condition-summary: Table 3, read-out: cGAS Inhibition Results IC50
IC50 overview

{"columns": ["compound", "IC50"],
 "data": [
  ["O=C(O)CCOC[C@H]1CC2CCC1N2c1cc(-n2ccnc2)c2ccc(Cl)c(Cl)c2n1 (some centres unmarked)", "< 2 µM"],
  ["O=C(O)COC[C@@H]1CN(c2cc(-c3cn[nH]c3)c3ccc(Cl)c(Cl)c3n2)CCO1", "< 2 µM"],
  ["COC(=O)C12CC(CN1c1cc(-n3ccnc3)c3ccc(Cl)c(Cl)c3n1)C2", "> 30 µM"],
  ["O=C(O)C1CCCCN1C(=O)[C@@H]1CCCN1c1cc(-n2ccnc2)c2ccc(Cl)c(Cl)c2n1 (some centres unmarked)", "2 to 30 µM"],
  ["C[C@H]1C[C@@H](C(=O)O)N(c2cc(-n3ccnc3)c3ccc(Cl)c(Cl)c3n2)C1", "< 2 µM"],
  ["O=C(O)CCOCC1CC(F)CN(c2cc(-n3ccnc3)c3ccc(Cl)c(Cl)c3n2)C1 (centres unmarked)", "< 2 µM"],
  ["O=C(O)C1CN(C(=O)[C@@H]2CCCN2c2cc(-n3ccnc3)c3ccc(Cl)c(Cl)c3n2)CCO1 (some centres unmarked)", "< 2 µM"],
  ["N#C[C@@H]1CCCN1c1cc(-n2ccnc2)c2ccc(Cl)c(Cl)c2n1", "< 2 µM"],
  ["O=C(O)C1(c2ccccc2)CCCN1c1cc(-n2ccnc2)c2ccc(Cl)c(Cl)c2n1 (centres unmarked)", "2 to 30 µM"],
  ["O=C(O)COC[C@H](O)[C@@H]1CCCN1c1cc(-n2ccnc2)c2ccc(Cl)c(Cl)c2n1", "< 2 µM"],
  ["O=C(O)[C@@H]1C[C@H](F)CN1c1cc(-n2ccnc2)c2ccc(Cl)c(Cl)c2n1", "< 2 µM"],
  ["CN(CCS(=O)(=O)NCCC(=O)O)c1cc(-n2ccnc2)c2ccc(Cl)c(Cl)c2n1", "< 2 µM"],
  ["O=C(O)C1CCCC1OC[C@@H]1CCCN1c1cc(-n2ccnc2)c2ccc(Cl)c(Cl)c2n1 (some centres unmarked)", "< 2 µM"],
  ["C[C@H](NC(=O)CCN(C)c1cc(-n2ccnc2)c2ccc(Cl)c(Cl)c2n1)C(=O)O", "< 2 µM"]
]}

###

system-name: recombinant human cGAS (aa147-522) (Homo sapiens)
Construct: recombinant human cGAS (aa147-522); His6-SUMO (cleaved yes); made in house; host or cells: E. coli BL21/pLys
assay-protocol: In vitro inhibition assay of cGAS activity (ATP consumption, KinaseGlo Max)
Assay type: biochemical
condition-summary: Table 3, read-out: cGAS Inhibition Results IC50
metric-name: IC50

{"columns": ["line-notation", "metric-name", "result"],
 "data": [
  ["CN(CCN1C(=O)c2ccccc2S1(=O)=O)c1cc(-n2ccnc2)c2ccc(Cl)c(Cl)c2n1", "IC50", "2000 to 30000 nM"],
  ["O=C(O)CCOCCN(c1cc(-n2ccnc2)c2ccc(Cl)c(Cl)c2n1)C1CC1", "IC50", "< 2000 nM"],
  ["O=C(O)[C@@H]1CCCN1C(=O)[C@@H]1CCCN1c1cc(-n2ccnc2)c2ccc(Cl)c(Cl)c2n1", "IC50", "< 2000 nM"],
  ["O=C(O)CCOCCN(CCOCCC(=O)O)c1cc(-n2ccnc2)c2ccc(Cl)c(Cl)c2n1", "IC50", "< 2000 nM"],
  ["O=C(O)CCOC[C@@H]1CCCN1c1cc(N2CC[C@@H](O)C2)c2ccc(Cl)c(Cl)c2n1", "IC50", "> 30000 nM"],
  ["O=C(O)CCOCc1cc(Cl)cc(-c2cc(-n3ccnc3)c3ccc(Cl)c(Cl)c3n2)c1", "IC50", "< 2000 nM"],
  ["NC(=O)COC[C@@H]1CCCN1c1cc(-n2ccnc2)c2ccc(Cl)c(Cl)c2n1", "IC50", "< 2000 nM"],
  ["O=C(O)CCOC[C@@H]1CCCCN1c1cc(-n2ccnc2)c2ccc(Cl)c(Cl)c2n1", "IC50", "< 2000 nM"],
  ["CC(C)(NC(=O)C[C@@H]1CCCN1c1cc(-n2ccnc2)c2ccc(Cl)c(Cl)c2n1)C(=O)O", "IC50", "< 2000 nM"],
  ["O=C(O)c1cnn(C[C@@H]2CCCN2c2cc(-n3ccnc3)c3ccc(Cl)c(Cl)c3n2)c1", "IC50", "< 2000 nM"],
  ["C[C@H]1[C@@H](C(=O)O)N(c2cc(-n3ccnc3)c3ccc(Cl)c(Cl)c3n2)C[C@@H]1O", "IC50", "2000 to 30000 nM"]
]}
